target: ClC-3 (long-ClC-3A) (Homo sapiens); test: whole-cell patch clamp, inhibitor in pipette
Sequence (P51790 whole entry): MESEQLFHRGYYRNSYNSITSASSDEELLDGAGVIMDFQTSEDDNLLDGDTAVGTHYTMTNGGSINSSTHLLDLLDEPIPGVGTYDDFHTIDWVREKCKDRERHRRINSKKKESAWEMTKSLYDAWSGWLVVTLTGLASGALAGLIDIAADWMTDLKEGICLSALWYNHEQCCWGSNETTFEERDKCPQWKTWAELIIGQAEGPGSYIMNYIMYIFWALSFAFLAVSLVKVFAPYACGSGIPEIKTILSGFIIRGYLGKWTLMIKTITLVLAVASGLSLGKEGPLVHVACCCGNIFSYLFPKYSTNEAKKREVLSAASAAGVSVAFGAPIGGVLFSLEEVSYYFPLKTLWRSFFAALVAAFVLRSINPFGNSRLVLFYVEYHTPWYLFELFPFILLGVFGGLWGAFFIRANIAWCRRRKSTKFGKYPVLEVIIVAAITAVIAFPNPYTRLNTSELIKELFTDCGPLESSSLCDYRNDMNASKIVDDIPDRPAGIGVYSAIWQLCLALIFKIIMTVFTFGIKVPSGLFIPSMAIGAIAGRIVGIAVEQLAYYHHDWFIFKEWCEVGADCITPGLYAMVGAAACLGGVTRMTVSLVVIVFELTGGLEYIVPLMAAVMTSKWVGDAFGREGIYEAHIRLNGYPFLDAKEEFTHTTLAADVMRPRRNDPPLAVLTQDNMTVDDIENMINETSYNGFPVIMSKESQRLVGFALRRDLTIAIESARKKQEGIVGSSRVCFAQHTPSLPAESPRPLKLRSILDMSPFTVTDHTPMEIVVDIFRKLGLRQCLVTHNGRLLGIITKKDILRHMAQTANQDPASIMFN
reportedProperty: pIC50
// scale note: pIC50 = -log10(conc_M); give the bare number

**Q:** Look at this molecule and give its reported pIC50. O=P(O)(O)O[C@H]1[C@H](OP(=O)(O)O)[C@@H](OP(=O)(O)O)[C@@H](O)[C@@H](O)[C@@H]1OP(=O)(O)O [Ins(3,4,5,6)P4]
**A:** 5.34
